Exercise: for every item that follows, state its recorded Ki.
method.description: Inhibition of Influenza B virus (B/Perth/211/2001) recombinant neuraminidase E197 mutant expressed in Sf21 insect cells after 60 mins by MUNANA based assay
One number for each entry, in nM.

{"compound": "CCOC(=O)C1=C[C@@H](OC(CC)CC)[C@H](NC(C)=O)[C@@H](N)C1", "measured.parameter": "Ki", "unit.label": "nM", "number": 84}

// moving on: another record for Ki
## Input Give Ki for the following compound: CCC(CC)[C@H](NC(C)=O)[C@@H]1[C@H](O)[C@@H](C(=O)O)C[C@H]1NC(=N)N [PERAMIVIR ANHYDROUS]
## Output 8.3
